System: U251 CNS
Respond only with the outcome that fits, drawn from y for active, n for inactive

stdin: # lookup: test call for COc1ccc(/C=C2\COc3ccc(O)c(O)c3C2=O)cc1
stdout: n

stdin: # outcome recorded in this test, key = COc1ccc2c(c1OC)-c1c(c3ccc([N+](=O)[O-])cc3c(=O)n1CCCN)C2=O
stdout: n

stdin: Dear colleague, could you share the recorded outcome for C=[CH][Sn]([CH]=C)([S]c1cccc2cccnc12)[S]c1cccc2cccnc12 when you have a moment?
stdout: y

stdin: Hi team, can someone confirm the assay call for COc1ccc(C(=S)N(C)NC(=O)CC(=O)NN(C)C(=S)c2ccc(OC)cc2)cc1 ?
stdout: n

---

Kindly state TGI for each of the entries shown.
System: NCI/ADR-RES ovarian
Test: NCI tumour cell line growth inhibition, 48 h

stdin: Answer with the recorded TGI for the compound listed here: C=C1C(O)C2C(=C(CCC3CC3)C13CC3)C(=O)C(C)(C)C2O (stereo unspecified)
stdout: > 100 µM

stdin: Kindly indicate its recorded TGI. Item: COc1cc(-c2nn(-c3cccc(NC(=O)Nc4cccc(C(F)(F)F)c4)c3)cc2-c2ccncc2)ccc1Cl
stdout: 3.58 µM

stdin: Name the recorded TGI of the item C[CH2][Pb]([CH2]C)([CH2]C)[O]C(=O)COC in your answer.
stdout: 12 µM

stdin: Retrieve TGI measured for Clc1c2ncccc2cc2n[nH]nc12 and print it.
stdout: > 100 µM

stdin: Determine from records and report TGI for Cc1cccc2c(NCCCN(C)C)c3c([N+](=O)[O-])ccc(C)c3nc12
stdout: 3.37 µM

stdin: Please indicate TGI recorded for CN(C)c1ccc(/C=C2\C[C@H]3[C@@H]4CC=C5C[C@@H](O)CC[C@]5(C)[C@H]4CC[C@]3(C)C2=O)cc1
stdout: 66.8 µM

---

Tested on: UACC-62 melanoma
Experiment: NCI tumour cell line growth inhibition, 48 h
Task for the reader: assign each of the following molecules its reported TGI.

stdin: Read off the recorded TGI for CCCCCCCCCCCC(=O)NCc1ccc(OC(=O)CCCCCCCCCCC)c(OC)c1
stdout: > 100 µM

stdin: Respond only with TGI recorded for CCNc1cnc2c(n1)c(=O)n(C)c(=O)n2C
stdout: > 100 µM

stdin: Please give measured TGI of the following entry: CCC1=C(C(C)=O)[C@@H]2CCCCC(C(=O)OC)[C@@H]2C1=O (stereo partly drawn)
stdout: > 100 µM

stdin: Identify measured TGI corresponding to CCC1=CCN(c2ccc(C)cc2)OC1c1ccc(OC)cc1 (stereo not drawn)
stdout: > 100 µM

stdin: Return TGI (reported value) for this molecule: NC(=O)c1cn(C2OC(CO)C(O)C2O)c(=O)[nH]c1=O (stereo not drawn)
stdout: > 100 µM

stdin: Supply recorded TGI for CCCCOC(=O)CC(CC(=O)OCCCC)(OC(C)=O)C(=O)OCCCC here.
stdout: > 200 µM

stdin: Find the measured TGI of Cn1nc(-c2cccc(-c3nn(C)c(=NCCO)s3)n2)sc1=NCCO and report it.
stdout: > 100 µM

stdin: Please give the documented TGI of O=C(NC(Cc1ccc(I)cc1)C(=O)O)c1cccc(Br)c1 (stereo not drawn)
stdout: > 100 µM

---

Can you tell me TGI for the items I'm about to list?
Test system: MALME-3M melanoma
Test: NCI tumour cell line growth inhibition, 48 h

stdin: Given the molecule C=C(CCOC)CCC1CCCCC/C1=N\N(C)C (stereo unspecified) , write its reported TGI.
stdout: > 100 µM

stdin: Tell me its TGI given O=[N+]([O-])c1nccn1COCCO as the entry.
stdout: > 100 µM

stdin: Find the measured TGI of Cc1ccccc1NC(=O)/C(=N/NC(=O)CC#N)C1C(=O)N(c2ccccc2)N=C1N (stereo unspecified) and report it.
stdout: > 100 µM

stdin: Hello, please tell me recorded TGI for this one: Cn1c(-c2ccncc2)c(-c2ccc(F)cc2)c2ncccc21
stdout: > 25 µM

stdin: Look up and state reported TGI for CSc1nc(NC2OC(COC(C)=O)C(OC(C)=O)C(OC(C)=O)C2OC(C)=O)c(N=CC=Nc2c(NC3OC(COC(C)=O)C(OC(C)=O)C(OC(C)=O)C3OC(C)=O)nc(SC)[nH]c2=O)c(=O)[nH]1 (stereo unspecified)
stdout: > 100 µM

stdin: Supply TGI value. Item: C[C@@H](O)CCC(=O)c1ccoc1
stdout: > 100 µM
